assay: Growth inhibition of human SKOV3 cells incubated for 48 hrs by sulforhodamine B assay; type: functional; conditions: SK-OV-3, 48 h, read-out: LC50 (the source's name)
ENDPOINT: CC50 (µM)
Answers are plain numbers, in µM.

Example entries and their recorded answers appear below.
c1ccc2[nH]c(-c3ccc(Nc4nc(N5CCCCC5)nc(N5CCOCC5)n4)cc3)nc2c1 26.9
Clc1ccc(-c2nc(Nc3ccc(-c4nc5ccccc5[nH]4)cc3)nc(N3CCOCC3)n2)cc1 100

With those in mind, consider the next molecule.
Exercise: # input molecule: "c1ccc(-c2nc(Nc3ccc(-c4nc5ccccc5[nH]4)cc3)nc(N3CCOCC3)n2)cc1" ; wanted: its CC50
Solution: 8.47
